system: FRK; conditions: Compound Concentration (nM):1000;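 also: KINOMEscan scanMAX binding as percent activity remaining versus control; lower means stronger binding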
Entry flag: T if Percent Control reaches 80%; F if it does not.

Solved cases below.
compound	targetEntity	groupLabel
CCS(=O)(=O)c1ccc(OC)c(Nc2ncc(-c3cccc(F)c3)o2)c1 [GW621970X]	FRK	F
COc1ccc2cc(-c3c(-c4ccncc4)nc(-c4ccc(S(C)(=O)=O)cc4C)n3C)ccc2c1	FRK	F
Cl.O=C(Nc1ccc(Oc2ccc3[nH]c(NC(=O)c4ccccc4)nc3c2)cc1)Nc1cc(C(F)(F)F)ccc1F [GW709042A]	FRK	F
COc1ccc2c(-c3ccnc(Nc4cccc(OC(F)(F)F)c4)n3)cnn2n1 [GW810372X]	FRK	T
COc1cc2ncn(-c3cc(O[C@H](C)c4ccccc4Cl)c(C(N)=O)s3)c2cc1OC [GSK237701A]	FRK	T
Nc1ncnc2occ(-c3ccc(NC(=O)Nc4cc(C(F)(F)F)ccc4F)cc3)c12 [GW770249X]	FRK	F

Then there is this compound:
INPUT: Could you please find out whether COc1cccc(-c2c[nH]c3c(N/N=C/c4ccncc4)ncnc23)c1 [GW814408X] has Percent Control that meets 80% or exceeds it?
OUTPUT: T
